- Test system: CEM cells HIV-1 protection, formazan growth assay
- assay_comment: NCI AIDS Antiviral Assay
quantity: EC50

Task: Returns the measured EC50 for the input compound. Input: Nc1nc(N)c2cc(Cl)ccc2n1
Output: > 1290 µM

Task: Returns the measured EC50 for the input compound. Input: COC(=O)c1ccccc1NC(c1ccccn1)c1ccc2cccnc2c1O (stereo unspecified)
Output: > 25.7 µM

Task: Returns the measured EC50 for the input compound. Input: CC1CNc2cccc3[nH]c(=S)n(c23)C1 (stereo unspecified)
Output: > 200 µM

Task: Returns the measured EC50 for the input compound. Input: CCOC(=O)/C(C#N)=C1/c2ccccc2C(=O)C1(Cl)C(N)=O (stereo unspecified)
Output: > 200 µM

Task: Returns the measured EC50 for the input compound. Input: COc1ccccc1C=NC12CC3CC(CC(C3)C1)C2
Output: > 132 µM

Task: Returns the measured EC50 for the input compound. Input: Cc1ccc(S(=O)(=O)NC(=O)OC23COCN2COC3)cc1
Output: > 759 µM

Task: Returns the measured EC50 for the input compound. Input: CCN(CC)C(=S)N/N=C(/C)c1cccc(/C(C)=N\NC(=S)N(CC)CC)n1
Output: > 200 µM
